Every entry's value here was drawn from patent US20100197591A1.

tested.target: Human full-length diacylglycerol:acylCoA acyltransferase 1 (DGAT-1) (Homo sapiens)
Construct: Human full-length diacylglycerol:acylCoA acyltransferase 1 (DGAT-1) was expressed in Sf9 insect cells; made in house; host or cells: Sf9 insect cells (baculovirus); crude membrane/microsome fraction
Sequence (O75907 whole entry): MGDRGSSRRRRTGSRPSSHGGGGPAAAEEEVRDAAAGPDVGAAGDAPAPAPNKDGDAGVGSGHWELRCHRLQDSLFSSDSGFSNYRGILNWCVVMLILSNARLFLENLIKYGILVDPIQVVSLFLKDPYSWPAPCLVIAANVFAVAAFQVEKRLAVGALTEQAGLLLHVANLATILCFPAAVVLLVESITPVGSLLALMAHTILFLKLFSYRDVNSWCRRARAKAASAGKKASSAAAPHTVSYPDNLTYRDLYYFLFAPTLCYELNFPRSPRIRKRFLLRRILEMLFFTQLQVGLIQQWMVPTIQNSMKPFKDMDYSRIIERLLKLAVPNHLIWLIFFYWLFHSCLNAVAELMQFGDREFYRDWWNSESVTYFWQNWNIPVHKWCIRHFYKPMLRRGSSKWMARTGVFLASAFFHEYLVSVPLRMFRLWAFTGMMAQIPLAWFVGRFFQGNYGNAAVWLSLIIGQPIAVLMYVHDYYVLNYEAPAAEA
experimental.protocol: DGAT-1 Reduced Microsome Multidose Assay, G7329F Human IC50
Assay type: biochemical
measurement.context: crude membrane fraction of Sf9 cells expressing human DGAT-1; [14C]decanoylCoA; apparent IC50, average where tested more than once
pIC50: −log10 of the molar value.
reported.metric: pIC50

1. COc1nc(N)c2c(n1)CCN(c1ccc(C(O)C(F)(F)F)cc1)C2=O (stereo not shown)
2. COc1nc(N)c2c(n1)CCN(c1ccc([S+]([O-])C(C)(C)C)cc1)C2=O (stereo not shown)
Of 1 and 2 , whose reported pIC50 is numerically smaller? Refer to your chosen entry by its label in the reply.
2

A. COc1nc(N)c2c(n1)CCN(c1ccc([C@H]3CC[C@H](Cc4nc(C)no4)CC3)c(F)c1)C2=O
B. CNC(=O)C(C)(C)c1ccc(N2CCc3nc(OC)nc(N)c3C2=O)cc1
Just curious, which one has the larger pIC50 reading, A or B ? Please identify the chosen entry by its label.
A
(A: 7.41, B: 6.90)
